# PROTOCOL_DESCRIPTION: Two-photon absorption cross-sectional area, Z scan method, Examples B
# Assay type: physicochemical
# SETTINGS: tetrahydrofuran solution, femtosecond laser, 780 nm to 960 nm (710 nm to 990 nm)
READOUT_KIND: Two-photon absorption cross-sectional area (GM)

[
  {
    "COMPOUND_STRUCTURE_STRING": "CCCCCCc1ccc(N(c2ccc(C3=C4C(C(=O)OC)=CC5=[N+]4[Co@]46[n]7c(cc(C(=O)OC)c73)C(c3ccc([N+](=O)[O-])cc3)=C3C=C(C(=O)OC)C(=[N+]34)C=c3c(C(=O)OC)cc([n]36)=C5c3ccc([N+](=O)[O-])cc3)cc2)c2ccc(C3=c4c(C(=O)OC)cc5[n]4[Co@]46[n]7c(cc(C(=O)OC)c7C=C7C(C(=O)OC)=CC(=[N+]74)C=5c4ccc([N+](=O)[O-])cc4)C(c4ccc([N+](=O)[O-])cc4)=C4C=C(C(=O)OC)C3=[N+]46)cc2)cc1",
    "OBSERVED_MEASUREMENT": 860
  },
  {
    "COMPOUND_STRUCTURE_STRING": "CCCCCCC1(CCCCCC)c2cc(C3=C4C=CC(=N4)C(c4cc(OC)c(OC)c(OC)c4)=c4ccc5[n]4[Co][n]4c(ccc43)C(c3cc(OC)c(OC)c(OC)c3)=C3C=CC(=N3)C=5/C=C/c3ccc(N(c4ccccc4)c4ccccc4)cc3)ccc2-c2ccc(C3=c4ccc5[n]4[Co][n]4c(ccc4C(c4cc(OC)c(OC)c(OC)c4)=C4C=CC3=N4)C=C3C=CC(=N3)C=5c3cc(OC)c(OC)c(OC)c3)cc21",
    "OBSERVED_MEASUREMENT": 900
  }
]

====

# PROTOCOL_DESCRIPTION: Two-photon absorption cross-sectional area, Z scan method, Examples A (800 nm)
# Type: physicochemical
# SETTINGS: tetrahydrofuran solution, femtosecond titanium sapphire laser
# Description: Each of the above-given compounds Nos. 1, 2, 4, 5, 6, 7, 10, 11, 15, 16, 17, 20, 24, 25, 27 and 28 of the present invention was dissolved in tetrahydrofuran, and the resultant solution was measured for its two-photon absorption cross-sectional area according to the below-described evaluation method therefor. […] The thus-determined nonlinear absorption coefficient and the following equation (2) were used to calculate a two-photon absorption cross-sectional area σ. […]
READOUT_KIND: Two-photon absorption cross-sectional area (GM)

[
  {
    "COMPOUND": "CCC1=C(CC)c2nc1c(Br)c1[nH]c(c(CC)c1CC)c(-c1ccc([N+](=O)[O-])cc1)c1nc(c(-c3ccc4c(c3)C(C)(C)c3cc(-c5c6nc(c(-c7ccc([N+](=O)[O-])cc7)c7[nH]c(c(Br)c8nc(c(-c9ccc([N+](=O)[O-])cc9)c9[nH]c5c(CC)c9CC)C(CC)=C8CC)c(CC)c7CC)C(CC)=C6CC)ccc3-4)c3[nH]c(c(CC)c3CC)c2-c2ccc([N+](=O)[O-])cc2)C(CC)=C1CC [compound 27]",
    "OBSERVED_MEASUREMENT": 870
  },
  {
    "COMPOUND": "CCC1=C(CC)C2=C(Br)c3c(CC)c(CC)c4[n]3[Zn][n]3c(c(CC)c(CC)c3=C(c3ccc5c(c3)C(C)(C)c3cc(C6=C7N=C(C(CC)=C7CC)C(c7ccc([N+](=O)[O-])cc7)=c7c(CC)c(CC)c8[n]7[Zn][n]7c(c(CC)c(CC)c76)C(c6ccc([N+](=O)[O-])cc6)=C6N=C(C(CC)=C6CC)C=8Br)ccc3-5)C3=NC(=C4c4ccc([N+](=O)[O-])cc4)C(CC)=C3CC)=C(c3ccc([N+](=O)[O-])cc3)C1=N2 [compound 28]",
    "OBSERVED_MEASUREMENT": 590
  },
  {
    "COMPOUND": "COc1ccc(-c2cc(C3=C(c4cc(-c5ccc(OC)cc5)sc4OC)C(F)(F)C(F)(F)C3(F)F)c(OC)s2)cc1 [compound 30, reference compound]",
    "OBSERVED_MEASUREMENT": 15
  },
  {
    "COMPOUND": "Cc1ccc(N(c2ccc(C)cc2)c2ccc(/C=C/c3ccc(C4=c5ccc6[n]5[Ni][n]5c(ccc5C(c5cccc(C7OCC(C)(C)CO7)c5)=C5C=CC4=N5)C(Cl)=C4C=CC(=N4)C=6c4cccc(C5OCC(C)(C)CO5)c4)cc3)cc2)cc1 [compound 6]",
    "OBSERVED_MEASUREMENT": 730
  }
]
